Measured protein stability index of individual entries
B1: RPAIN (parent)
chain: ISEYEKSLQFDEKCLSIMLAEWEA

Variants of: B1
MEASUREMENT NOTES: protein stability index of a GFP-peptide fusion (GPS, HEK-293T) (PSI 1-6); higher = more stable;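 note: lentivirally expressed fusions sorted by FACS into six bins by GFP to DsRed ratio, PSI derived from sequencing read proportions per bin multiplied by bin number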
TEST SETTINGS: c terminus: a fixed tail appended
ASSAY ENDPOINT: protein stability index

[[record]]
entry_sequence = "ISECEKSLQFDEKCLSIMLAEWEA [Y4C]"
assay_endpoint = "protein stability index"
measured = 1.75

[[record]]
entry_sequence = "ISEYEKSLQFDEKCPSIMLAEWEA [L15P]"
assay_endpoint = "protein stability index"
measured = 4.02

[[record]]
entry_sequence = "ISEYEKSLQFDEKCLSIMLAIWEA [E21I]"
assay_endpoint = "protein stability index"
measured = 3.31

[[record]]
entry_sequence = "ISEYEKSLQVDEKCLSIMLAEWEA [F10V]"
assay_endpoint = "protein stability index"
measured = 2.45

[[record]]
entry_sequence = "ISEYEKSLQFAEKCLSIMLAEWEA [D11A]"
assay_endpoint = "protein stability index"
measured = 2.17

[[record]]
entry_sequence = "ISEYEKSLQFDEKCLSIMLAEWSA [E23S]"
assay_endpoint = "protein stability index"
measured = 2.66

[[record]]
entry_sequence = "ISEYEKSLQFDVKCLSIMLAEWEA [E12V]"
assay_endpoint = "protein stability index"
measured = 1.26

[[record]]
entry_sequence = "ISEYEKSLQFDEKCLSKMLAEWEA [I17K]"
assay_endpoint = "protein stability index"
measured = 2.08

[[record]]
entry_sequence = "ISEYEKSLQFDEKCLSIMLADWEA [E21D]"
assay_endpoint = "protein stability index"
measured = 2.27

[[record]]
entry_sequence = "ISEYEESLQFDEKCLSIMLAEWEA [K6E]"
assay_endpoint = "protein stability index"
measured = 1.78

[[record]]
entry_sequence = "ISEYEKSLQFDEKCLSIMLAEWEM [A24M]"
assay_endpoint = "protein stability index"
measured = 3.31

[[record]]
entry_sequence = "ISEYEKSLQFREKCLSIMLAEWEA [D11R]"
assay_endpoint = "protein stability index"
measured = 1.77

[[record]]
entry_sequence = "ISEYEKSLQFDEKCLSIMLMEWEA [A20M]"
assay_endpoint = "protein stability index"
measured = 2.49

[[record]]
entry_sequence = "ISEYEKSLQFDEKCLSTMLAEWEA [I17T]"
assay_endpoint = "protein stability index"
measured = 2.12

[[record]]
entry_sequence = "ISESEKSLQFDEKCLSIMLAEWEA [Y4S]"
assay_endpoint = "protein stability index"
measured = 1.77

[[record]]
entry_sequence = "ISEYEKSLQFDEKCLSLMLAEWEA [I17L]"
assay_endpoint = "protein stability index"
measured = 1.85

[[record]]
entry_sequence = "ISEYEKSLPFDEKCLSIMLAEWEA [Q9P]"
assay_endpoint = "protein stability index"
measured = 1.95

[[record]]
entry_sequence = "HSEYEKSLQFDEKCLSIMLAEWEA [I1H]"
assay_endpoint = "protein stability index"
measured = 2.15

[[record]]
entry_sequence = "ISEYEKSLQFDEKCLSIKLAEWEA [M18K]"
assay_endpoint = "protein stability index"
measured = 2.19

[[record]]
entry_sequence = "ISEYEKSLQFDEKCLSIMLAPWEA [E21P]"
assay_endpoint = "protein stability index"
measured = 2.73

[[record]]
entry_sequence = "ISEYEKPLQFDEKCLSIMLAEWEA [S7P]"
assay_endpoint = "protein stability index"
measured = 1.47

[[record]]
entry_sequence = "ISEYEKSLQFDEKCLKIMLAEWEA [S16K]"
assay_endpoint = "protein stability index"
measured = 2.17

[[record]]
entry_sequence = "ISEYEKMLQFDEKCLSIMLAEWEA [S7M]"
assay_endpoint = "protein stability index"
measured = 1.56

[[record]]
entry_sequence = "ISEYEKSLQFDEKCLSIMLAEWRA [E23R]"
assay_endpoint = "protein stability index"
measured = 1.85

[[record]]
entry_sequence = "ISEYEKSLQFDEQCLSIMLAEWEA [K13Q]"
assay_endpoint = "protein stability index"
measured = 1.47

[[record]]
entry_sequence = "ISEQEKSLQFDEKCLSIMLAEWEA [Y4Q]"
assay_endpoint = "protein stability index"
measured = 1.8

[[record]]
entry_sequence = "ISEYEKSLQFDEKCLSIMDAEWEA [L19D]"
assay_endpoint = "protein stability index"
measured = 4.34

[[record]]
entry_sequence = "ISEYEKSLQFDEKCLSITLAEWEA [M18T]"
assay_endpoint = "protein stability index"
measured = 2.79

[[record]]
entry_sequence = "ISEYEKSLQFDEKCLMIMLAEWEA [S16M]"
assay_endpoint = "protein stability index"
measured = 1.49

[[record]]
entry_sequence = "ISEYEKSLQFDEKCLSIFLAEWEA [M18F]"
assay_endpoint = "protein stability index"
measured = 2.5

[[record]]
entry_sequence = "ISEYEKSLKFDEKCLSIMLAEWEA [Q9K]"
assay_endpoint = "protein stability index"
measured = 2.23

[[record]]
entry_sequence = "ISEYEKSLVFDEKCLSIMLAEWEA [Q9V]"
assay_endpoint = "protein stability index"
measured = 1.25

[[record]]
entry_sequence = "ISEYEKSLQFDEKCLSIWLAEWEA [M18W]"
assay_endpoint = "protein stability index"
measured = 2.52

[[record]]
entry_sequence = "ISEYEKSNQFDEKCLSIMLAEWEA [L8N]"
assay_endpoint = "protein stability index"
measured = 2.71

[[record]]
entry_sequence = "ISEMEKSLQFDEKCLSIMLAEWEA [Y4M]"
assay_endpoint = "protein stability index"
measured = 2.15

[[record]]
entry_sequence = "INEYEKSLQFDEKCLSIMLAEWEA [S2N]"
assay_endpoint = "protein stability index"
measured = 2.18

[[record]]
entry_sequence = "ISEYEKSLQFDEKCLSYMLAEWEA [I17Y]"
assay_endpoint = "protein stability index"
measured = 1.2

[[record]]
entry_sequence = "ISEYEKSLQFDEKCLSIMLASWEA [E21S]"
assay_endpoint = "protein stability index"
measured = 2.31

[[record]]
entry_sequence = "ISEYEKSLQFDEVCLSIMLAEWEA [K13V]"
assay_endpoint = "protein stability index"
measured = 1.7

[[record]]
entry_sequence = "WSEYEKSLQFDEKCLSIMLAEWEA [I1W]"
assay_endpoint = "protein stability index"
measured = 1.26

[[record]]
entry_sequence = "ISEYEKSLQFDEKCLSIGLAEWEA [M18G]"
assay_endpoint = "protein stability index"
measured = 3.33

[[record]]
entry_sequence = "ISEYEKSLEFDEKCLSIMLAEWEA [Q9E]"
assay_endpoint = "protein stability index"
measured = 1.78

[[record]]
entry_sequence = "ISEYEKSLQFDEKCLSIMAAEWEA [L19A]"
assay_endpoint = "protein stability index"
measured = 2.59

[[record]]
entry_sequence = "ISEYEKSLQFDEKCMSIMLAEWEA [L15M]"
assay_endpoint = "protein stability index"
measured = 2.2

[[record]]
entry_sequence = "ISEYEKSLQFDEKCLSIDLAEWEA [M18D]"
assay_endpoint = "protein stability index"
measured = 3.26

[[record]]
entry_sequence = "ISEYKKSLQFDEKCLSIMLAEWEA [E5K]"
assay_endpoint = "protein stability index"
measured = 2.81

[[record]]
entry_sequence = "DSEYEKSLQFDEKCLSIMLAEWEA [I1D]"
assay_endpoint = "protein stability index"
measured = 2.6


Ref: the supplement of paper PMC10567573
